Target: RUNX1 (UniProt Q01196)
Sequence (Q01196 whole entry): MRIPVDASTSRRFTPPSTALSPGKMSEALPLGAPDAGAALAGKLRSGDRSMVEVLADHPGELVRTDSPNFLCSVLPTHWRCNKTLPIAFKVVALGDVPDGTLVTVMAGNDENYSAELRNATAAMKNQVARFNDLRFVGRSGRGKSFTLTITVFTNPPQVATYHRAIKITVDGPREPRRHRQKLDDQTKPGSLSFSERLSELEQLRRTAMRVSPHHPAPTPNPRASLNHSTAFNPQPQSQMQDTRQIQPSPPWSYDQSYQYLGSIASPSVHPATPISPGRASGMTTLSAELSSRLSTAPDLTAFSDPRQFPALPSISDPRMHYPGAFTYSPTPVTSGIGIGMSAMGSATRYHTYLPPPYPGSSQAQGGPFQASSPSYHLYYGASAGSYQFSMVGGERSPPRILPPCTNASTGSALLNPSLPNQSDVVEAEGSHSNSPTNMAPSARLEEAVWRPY
Assay: RUNX1 binding intensity (PBM fluorescence) in presence of ETS1, normalised to RUNX1-only experiment (arbitrary fluorescence units); higher = stronger binding
Conditions: RUNX1 concentration 2 nM; ETS1 concentration 25 nM
The threshold is inclusive: RUNX1 binding intensity of exactly 1000 counts as True; values below receive False.

INSERT INTO measurements (chain, label_value) VALUES
  ('AATGCCGGATATTGGTTCTGGTAAGCCACAAAAAAG', 'True'),
  ('GCTGGGGCAGGAAGCTTCTAGGCCACAGACAGGACG', 'False'),
  ('TCCTTTTCCGGTGGCGGCGCCGCGCGGTGAGGTTGT', 'True'),
  ('GGTCTCTGCTTCCGGTCCTTGTGGTAGCACCTCTGT', 'True'),
  ('TTAACTCCACGGAAGAATAAACCACCACCGCTCACC', 'False'),
  ('CTCTCTGGGCGGAAGGAACGCGGTCACCCTGAGAAA', 'False'),
  ('CTAGGCCACCGGAAGTCTCCGCAGTGGTTTTGCAAA', 'True'),
  ('TGATGCACTTCCTGAGGGCCCGCATGTGGTAAACAC', 'True'),
  ('CATGACGAAGGGGAAGGATGTGGTTTGAGGGCAGCA', 'True'),
  ('TGTCATCCCGGAAACTGATAACAAGACCGCGAGTCA', 'True');

* * *

Target: RUNX1 (UniProt Q01196)
Assay: RUNX1 binding intensity (PBM fluorescence), RUNX1 alone (arbitrary fluorescence units); higher = stronger binding
Conditions: RUNX1 concentration 2 nM; ETS1 concentration 0 nM
Property: RUNX1 binding intensity

INSERT INTO measurements (chain, tested_on, value_observed) VALUES
  ('AGCTCCCCTCCCCGGAAACTTGACCACCTAGCCCAG', 'RUNX1 (UniProt Q01196)', 875),
  ('TAAATCGGAAACTCGCCGCTCAGCCCGCAGCCGCCG', 'RUNX1 (UniProt Q01196)', 901),
  ('AACCAAACAGCCACAGGAAGTGGTTTCTGTGATTCA', 'RUNX1 (UniProt Q01196)', 840),
  ('TACAGGAACTTCCTGCGCGGCTGCTGTGGTTGCGAG', 'RUNX1 (UniProt Q01196)', 684),
  ('AAAAGGCACCAGGAAATGACAGCACCGCAGCACGCC', 'RUNX1 (UniProt Q01196)', 717),
  ('AGCTTCCGAGTCTGTTGTGGAGTGGGAACCGCGACT', 'RUNX1 (UniProt Q01196)', 724),
  ('GCCTGTGGAGTTGCAGGATGTGGTTGGCGAAAAGAA', 'RUNX1 (UniProt Q01196)', 905),
  ('TCTAGTTCTGGTTTCCGGACCGCATTCGGAACTAGA', 'RUNX1 (UniProt Q01196)', 786),
  ('AACAAACAGTAGGCAGGAAGTGGTTAAACCGAAAGG', 'RUNX1 (UniProt Q01196)', 897),
  ('AGAAGCTTCTACAGGAAACCACTAATGGAGACAGAG', 'RUNX1 (UniProt Q01196)', 782),
  ('CCTCAATTTCCTGGCCAGAGAAACCACTGCCTCTCA', 'RUNX1 (UniProt Q01196)', 1030),
  ('CTGCTGCCGCGAACAGGAAACCACTACAATCAGGAG', 'RUNX1 (UniProt Q01196)', 816),
  ('CTTTCTGGTTTCCTTCCTTTTTGGTTTTGGTTTCAT', 'RUNX1 (UniProt Q01196)', 1630),
  ('AAGTGGAGAGCGGAAGTGAGCTGTGGGTGACTGCAG', 'RUNX1 (UniProt Q01196)', 759),
  ('TTCAACAGGATGTGGGAACTTGACTCTCGCCGCAAA', 'RUNX1 (UniProt Q01196)', 737),
  ('GGGAGGTGTCCAGGAAGTGGTTGGAGAGTCTGGTCT', 'RUNX1 (UniProt Q01196)', 756),
  ('GTGCAGACAGGAAATAGCTGCTCTGCGGCAGCCCGA', 'RUNX1 (UniProt Q01196)', 752);

* * *

Target: RUNX1 (UniProt Q01196)
Assay: RUNX1 binding intensity (PBM fluorescence), RUNX1 alone (arbitrary fluorescence units); higher = stronger binding
Details: RUNX1 concentration 2 nM; ETS1 concentration 0 nM
Property: RUNX1 binding intensity

INSERT INTO assay_data (chain, property, value_observed) VALUES
  ('TGCGCCGCTTCCGCTGCCCGAGGAAGAGCCGCAGTC', 'RUNX1 binding intensity', 802),
  ('CCGGGAAGGCGGAAGCAGCAGAGACGCCGCAAGGCC', 'RUNX1 binding intensity', 823),
  ('GGGTGAGTATTTCCTCCTGCGGTGGGTCGGCATGTA', 'RUNX1 binding intensity', 796);

* * *

Biological target: ETS1 (UniProt P14921)
Sequence: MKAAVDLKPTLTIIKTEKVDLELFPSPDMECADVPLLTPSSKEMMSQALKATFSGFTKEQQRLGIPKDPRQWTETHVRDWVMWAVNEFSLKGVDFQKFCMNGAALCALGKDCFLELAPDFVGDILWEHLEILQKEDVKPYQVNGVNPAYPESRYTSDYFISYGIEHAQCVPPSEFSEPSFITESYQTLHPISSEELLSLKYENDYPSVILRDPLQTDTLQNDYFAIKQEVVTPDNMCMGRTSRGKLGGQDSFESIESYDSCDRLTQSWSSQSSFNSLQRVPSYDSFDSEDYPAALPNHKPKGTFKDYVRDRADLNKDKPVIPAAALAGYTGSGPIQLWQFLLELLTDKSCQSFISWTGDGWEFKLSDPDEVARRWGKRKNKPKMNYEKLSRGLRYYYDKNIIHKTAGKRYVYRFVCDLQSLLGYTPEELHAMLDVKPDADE
Assay: ETS1 binding intensity (PBM fluorescence), ETS1 alone (arbitrary fluorescence units); higher = stronger binding
Conditions: ETS1 concentration 1 nM; RUNX1 concentration 0 nM
Answer 0.0 if ETS1 binding intensity is under 2000, and 1.0 if it is 2000 or more.

INSERT INTO assay_data (chain, label_value) VALUES
  ('GTCGTCAGCGTCTTCCTGTCAGCGGTCGGCAGAGCC', 0.0),
  ('ACACTGAGCTGAACGGAAATGTGGTTCTCACCTCAT', 1.0),
  ('AGCGGCTGCACAGGAAGTTGGTTTTCACAAAGGCAA', 1.0),
  ('GCGAGACGCGGAAGAGGCTTGCGGTTGACCAAAGAA', 0.0),
  ('GTGTGCGTGAGAAGAGGAAGTGGTTAGGAAGACACA', 1.0),
  ('ATGCCTGTAGGAGGATGTGGTTTCTACACAACTCTG', 0.0),
  ('AAGCCCTAGAGGAAATTAGTACGTAACCACCTTCTG', 0.0),
  ('CCCCTCTCTCCCACTTCCTGTGGTCTCAGTCTTTGT', 1.0);

* * *

Target: RUNX1 (UniProt Q01196)
Experiment: RUNX1 binding intensity (PBM fluorescence) in presence of ETS1, normalised to RUNX1-only experiment (arbitrary fluorescence units); higher = stronger binding
Conditions: RUNX1 concentration 2 nM; ETS1 concentration 25 nM
We use 1000 as the dividing line for RUNX1 binding intensity: on or above the line is satisfied, below is not satisfied.

INSERT INTO assay_data (chain, tested_on, label_value) VALUES
  ('ACCGGCCGAGCCAACTTCCGGCCGCAGAGGCTGCCG', 'RUNX1 (UniProt Q01196)', 'satisfied'),
  ('CAAGGGAACATCCTTAAACAGCTTGTGGTATTGCTG', 'RUNX1 (UniProt Q01196)', 'satisfied'),
  ('CAAAGGTTAAATGCAGGATGTGGTTTCTGCAGACTC', 'RUNX1 (UniProt Q01196)', 'satisfied'),
  ('GTGGTCTCTGCCACTTCCTGTGGTGTAAACAGTCTC', 'RUNX1 (UniProt Q01196)', 'satisfied'),
  ('TAGGCAGGCAGGATGTGCCTATAAGCCACATGAATG', 'RUNX1 (UniProt Q01196)', 'not satisfied'),
  ('CGGGCCGGATCGCCTTCGCCGCCGCCCGCCCGCAAA', 'RUNX1 (UniProt Q01196)', 'not satisfied'),
  ('CACCTCGGGGGTTTCCGGTCCGTGGTTAGCTCCTTC', 'RUNX1 (UniProt Q01196)', 'satisfied'),
  ('AGTTTTCCGTCGGGCTCCCAGTGACGCCGCAGAGGT', 'RUNX1 (UniProt Q01196)', 'satisfied'),
  ('GGGGGAGTTTTCGGAAGCGCTAACCGCGTTGGGGCC', 'RUNX1 (UniProt Q01196)', 'not satisfied'),
  ('CACTGCGGAAGCAGTGTAGAGAGGTGGTTATCAGTG', 'RUNX1 (UniProt Q01196)', 'not satisfied'),
  ('GTTGGGCTTTGAGGATGTGGGTTCTAGAAGTTTACA', 'RUNX1 (UniProt Q01196)', 'satisfied'),
  ('GGTCCGGAAACGATTCTGGACCTGCGGGTATATCCA', 'RUNX1 (UniProt Q01196)', 'satisfied'),
  ('TCTTCAGGCGTCTTTCCGGTGGTGGTCGTTTTTGCT', 'RUNX1 (UniProt Q01196)', 'satisfied'),
  ('TCCCCTTTCCGGGAAGGGTTGGGGATCTGACCACGT', 'RUNX1 (UniProt Q01196)', 'satisfied'),
  ('GACCGAGAGGAAGCAGCAAGGATCCTGCGGTTCCAG', 'RUNX1 (UniProt Q01196)', 'not satisfied'),
  ('GGCCAACGAGAGCGCTTCCGGCCGCAGCCACGGCGG', 'RUNX1 (UniProt Q01196)', 'satisfied'),
  ('ACTTTCGCGACGCAGGAAGCGCCCACAAAGGGAGGA', 'RUNX1 (UniProt Q01196)', 'not satisfied'),
  ('AGCTTGCCGGAAGCTGGTTGTTCGCTGCGGCGACCA', 'RUNX1 (UniProt Q01196)', 'satisfied'),
  ('ACTACAGGAGGAAACTACAGCCTAAACCACATGCAA', 'RUNX1 (UniProt Q01196)', 'not satisfied'),
  ('AGCACAAACCCAGGATGTGGTAAATGAAATGAAAAA', 'RUNX1 (UniProt Q01196)', 'satisfied'),
  ('GTAGAGACAGGAAATTATGTTGGTTTTCTTGCAGAA', 'RUNX1 (UniProt Q01196)', 'satisfied'),
  ('CTTAGAGTACCAGGATGTGGTTTGGCCTGGGGGTGG', 'RUNX1 (UniProt Q01196)', 'satisfied'),
  ('CCCCTGCCCCTTCCTGGAAGGCTGCGGTGTAACACC', 'RUNX1 (UniProt Q01196)', 'satisfied'),
  ('GTGGGAGCGGAAGCCTGAGCGGCCTGCGGCCTCCGG', 'RUNX1 (UniProt Q01196)', 'satisfied'),
  ('AGGTCTCCGGAAGTGGGTCTGCGGCGCGCGGGATGC', 'RUNX1 (UniProt Q01196)', 'satisfied'),
  ('CCCAAGCTACGGAAGTTAAACCTCAAACATGAAATC', 'RUNX1 (UniProt Q01196)', 'satisfied'),
  ('GAGTTCCGCCTCGCCGTTTGTCCCTTGCGGTACCCG', 'RUNX1 (UniProt Q01196)', 'satisfied'),
  ('CTACTTTCCGGTCAACGCGGCCTGCGGTACCACCTC', 'RUNX1 (UniProt Q01196)', 'satisfied'),
  ('GGAGGTGGGGAGGAAGTTCTGAAACCACACACATTT', 'RUNX1 (UniProt Q01196)', 'satisfied'),
  ('TTTCGAGAAAACCGGAAGTGCGTGGTCACGCCCCGC', 'RUNX1 (UniProt Q01196)', 'satisfied'),
  ('GCCCAATTCCCGAATCCGGTCTGCGGCGCGCTCGGG', 'RUNX1 (UniProt Q01196)', 'satisfied'),
  ('CCCCTCACTTCCCTCAACCCTTCCCACAAACTGGGA', 'RUNX1 (UniProt Q01196)', 'satisfied'),
  ('GCCGTGGGTACGACCGGAAGCCGCAGGTGGGTGAAG', 'RUNX1 (UniProt Q01196)', 'satisfied'),
  ('ACAAGGAGGAAAAGGAAATGAACCACGAATAGCAAA', 'RUNX1 (UniProt Q01196)', 'not satisfied'),
  ('GGGCGGGTCAGCGGAAGTGAGGGCGGTTGAGGCTGG', 'RUNX1 (UniProt Q01196)', 'satisfied'),
  ('TCACTCTAACAGGATATTGTGGTTAACTATGTTGCC', 'RUNX1 (UniProt Q01196)', 'satisfied'),
  ('ATGGCGGAGCGGAAGTCCCAGCCACAACGCGAAAAG', 'RUNX1 (UniProt Q01196)', 'satisfied'),
  ('AACTGCCTGGTGGCCGGAAACCGCTGGAGGGAGGGC', 'RUNX1 (UniProt Q01196)', 'satisfied'),
  ('GCGAGAGGGAGGAAGTGACTCACCAACCACAACAAA', 'RUNX1 (UniProt Q01196)', 'satisfied'),
  ('AGCGGCCGAAGGAAGTGACGTTTGCGGCAGTAAGGC', 'RUNX1 (UniProt Q01196)', 'satisfied'),
  ('ATTACAGGAAGTATGTCCTCCTCTGCCTAACCACTG', 'RUNX1 (UniProt Q01196)', 'satisfied'),
  ('CCCAGCCGAGGGAGGAAGCCTGCGGTCACTGCCATC', 'RUNX1 (UniProt Q01196)', 'satisfied'),
  ('GGAGCATCCCGGAAGTCGTCACTGCGGCCGCTCCCG', 'RUNX1 (UniProt Q01196)', 'satisfied'),
  ('CTGCGAGCTCAGAACGGAAACCACAGCAACTACCGT', 'RUNX1 (UniProt Q01196)', 'satisfied'),
  ('TGGGTACTTCCTGTGACAAATCGAGTTGACCACATG', 'RUNX1 (UniProt Q01196)', 'satisfied'),
  ('AGCTCTAAGGTTCCGCCTGCGGGCAGCAAGCGGAGG', 'RUNX1 (UniProt Q01196)', 'not satisfied'),
  ('GCACCGTCTACCCGGAAGTTGTGGGCTGGGAGGGAT', 'RUNX1 (UniProt Q01196)', 'satisfied');
